tested.system: T1, rat collagen, acid soluble, type I, rat tail (Upstate 08-115) (rat, UniProt P02454 152-1207; P02466 86-1125)
T1 construct: tissue extract, gelled and dried in wells; also called dried rat collagen
T1 sequence (P02454 152-1207, chain 1 of 2): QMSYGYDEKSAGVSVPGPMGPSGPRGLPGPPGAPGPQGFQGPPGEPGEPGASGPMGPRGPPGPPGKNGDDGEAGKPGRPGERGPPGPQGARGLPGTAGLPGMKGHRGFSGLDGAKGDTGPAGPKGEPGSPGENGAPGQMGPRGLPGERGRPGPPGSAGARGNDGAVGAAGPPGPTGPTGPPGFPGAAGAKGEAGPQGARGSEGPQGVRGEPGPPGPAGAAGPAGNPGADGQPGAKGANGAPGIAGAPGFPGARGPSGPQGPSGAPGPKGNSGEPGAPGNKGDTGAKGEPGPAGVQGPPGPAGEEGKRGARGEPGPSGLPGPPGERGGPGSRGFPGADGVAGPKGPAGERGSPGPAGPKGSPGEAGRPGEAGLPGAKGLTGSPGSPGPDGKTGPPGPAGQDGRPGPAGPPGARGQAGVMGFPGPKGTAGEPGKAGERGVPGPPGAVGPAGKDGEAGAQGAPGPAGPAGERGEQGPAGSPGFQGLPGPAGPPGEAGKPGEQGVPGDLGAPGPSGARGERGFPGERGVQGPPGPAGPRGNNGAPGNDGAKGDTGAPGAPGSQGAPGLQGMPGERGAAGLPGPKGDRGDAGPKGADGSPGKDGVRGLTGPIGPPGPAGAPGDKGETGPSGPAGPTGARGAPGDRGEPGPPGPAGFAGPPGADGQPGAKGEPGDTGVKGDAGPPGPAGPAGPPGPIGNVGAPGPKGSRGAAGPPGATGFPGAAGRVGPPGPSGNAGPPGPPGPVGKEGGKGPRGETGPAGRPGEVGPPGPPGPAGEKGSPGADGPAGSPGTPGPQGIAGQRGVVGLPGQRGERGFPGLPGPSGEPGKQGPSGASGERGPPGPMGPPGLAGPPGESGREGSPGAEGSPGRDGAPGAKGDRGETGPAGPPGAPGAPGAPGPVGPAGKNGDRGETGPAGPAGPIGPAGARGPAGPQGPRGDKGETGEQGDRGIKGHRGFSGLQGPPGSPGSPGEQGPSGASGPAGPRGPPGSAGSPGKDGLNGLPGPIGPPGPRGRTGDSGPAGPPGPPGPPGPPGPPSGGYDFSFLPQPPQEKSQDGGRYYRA
T1 sequence (P02466 86-1125, chain 2 of 2): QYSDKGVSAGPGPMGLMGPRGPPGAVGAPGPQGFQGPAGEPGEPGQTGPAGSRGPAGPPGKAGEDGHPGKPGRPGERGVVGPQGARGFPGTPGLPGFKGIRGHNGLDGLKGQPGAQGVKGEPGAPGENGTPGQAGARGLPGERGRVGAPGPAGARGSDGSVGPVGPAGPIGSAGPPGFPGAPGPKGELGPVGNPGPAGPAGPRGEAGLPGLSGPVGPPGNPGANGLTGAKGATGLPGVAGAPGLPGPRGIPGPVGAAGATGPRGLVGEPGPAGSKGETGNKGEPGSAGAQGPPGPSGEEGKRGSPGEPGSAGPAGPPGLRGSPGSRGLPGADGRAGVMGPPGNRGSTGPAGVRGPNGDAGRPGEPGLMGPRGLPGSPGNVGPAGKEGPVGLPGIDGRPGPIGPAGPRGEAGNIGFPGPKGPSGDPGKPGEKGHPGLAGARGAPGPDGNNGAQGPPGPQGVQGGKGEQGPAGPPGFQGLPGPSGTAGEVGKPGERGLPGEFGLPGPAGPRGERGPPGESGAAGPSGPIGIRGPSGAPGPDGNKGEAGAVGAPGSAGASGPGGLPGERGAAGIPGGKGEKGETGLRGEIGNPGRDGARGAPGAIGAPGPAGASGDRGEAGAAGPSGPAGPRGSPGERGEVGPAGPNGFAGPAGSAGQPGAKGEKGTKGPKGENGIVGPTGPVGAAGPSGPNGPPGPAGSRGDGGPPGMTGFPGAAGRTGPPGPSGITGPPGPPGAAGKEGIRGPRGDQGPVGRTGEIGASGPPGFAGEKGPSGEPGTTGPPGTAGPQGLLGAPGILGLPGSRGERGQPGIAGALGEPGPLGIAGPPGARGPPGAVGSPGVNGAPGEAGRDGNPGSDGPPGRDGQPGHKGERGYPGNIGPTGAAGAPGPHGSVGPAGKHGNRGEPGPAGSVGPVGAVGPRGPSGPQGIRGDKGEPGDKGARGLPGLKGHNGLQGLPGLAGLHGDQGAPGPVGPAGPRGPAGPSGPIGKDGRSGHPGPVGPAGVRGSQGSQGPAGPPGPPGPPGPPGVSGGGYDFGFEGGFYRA
test: dried collagen assay
Bridge positions count the residues as written; N and C are the ends. Square brackets hold non-standard residues; d marks the D form. Primed or numbered codes have the meaning given here. Side chains are listed from the residue outwards. Ends that are not written are not given here. Bip = N[C@@H](Cc1ccc(-c2ccccc2)cc1)C(=O)O; Gd^T(3) = GdDTPA attached via thiourea; 4Pal = N[C@@H](Cc1ccncc1)C(=O)O; Gd^T = not defined here; Gd^T″ = GdDTPA-thiourea
property.measured: % bound (%)

binder	% bound (%)
{Gd^T}-DWTC[4Pal]GDEYTWHCNYE (disulfide 4-13; not fully specified (C-terminus); reading uncertain) [Compound ID 849]	42
{Gd^T″}-GQWHCATRFPHHYCLYG (disulfide 5-14 (inferred)) [Compound ID 877]	41

[A] {Gd^T″}-GQWHCTTK(Gd^T″)FPHHYCLYG (disulfide 5-14 (inferred); not fully specified (C-terminus)) [Compound ID 813]
[B] {Gd^T(3)}-GK([Gly-Gd^T(3)])WHCTTYFPHHYCLY[Bip] (disulfide 5-14) [Compound ID 950]
Lab note: check whether A or B shows the higher recorded % bound. Pick one; state its label.
B
